- TARGET_UNDER_TEST: Cytochrome P450 3A4 (Homo sapiens, UniProt P08684);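 further: CYP3A4 tested as one member of a cytochrome P450 panel screen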
- Sequence (P08684 whole entry): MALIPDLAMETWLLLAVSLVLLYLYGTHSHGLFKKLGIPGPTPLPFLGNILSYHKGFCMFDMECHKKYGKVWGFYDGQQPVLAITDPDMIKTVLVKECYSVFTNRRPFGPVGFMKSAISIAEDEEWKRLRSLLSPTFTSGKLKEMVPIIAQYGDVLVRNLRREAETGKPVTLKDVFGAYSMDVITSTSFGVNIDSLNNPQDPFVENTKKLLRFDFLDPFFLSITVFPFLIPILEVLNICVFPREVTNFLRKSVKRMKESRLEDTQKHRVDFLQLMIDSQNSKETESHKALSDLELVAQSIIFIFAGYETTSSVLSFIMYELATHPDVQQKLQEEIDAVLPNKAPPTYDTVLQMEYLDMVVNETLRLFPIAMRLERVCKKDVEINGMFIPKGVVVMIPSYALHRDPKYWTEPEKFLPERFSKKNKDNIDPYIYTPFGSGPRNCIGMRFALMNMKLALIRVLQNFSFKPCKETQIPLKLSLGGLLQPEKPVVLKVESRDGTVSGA
READOUT_KIND: AC50

The cases that follow already have their AC50 on record.
Cc1c(N2C(=O)/C(=C3/C(=O)N(C)c4ccccc43)SC2=S)c(=O)n(-c2ccccc2)n1C	15.8 µM (inconclusive)
CN(C)S(=O)(=O)c1cccc(NC(=O)COC(=O)c2ccc(Br)o2)c1	20 µM (inconclusive)
COc1ccc(N2C(=O)NC(NC(=O)c3ccncc3)(C(F)(F)F)C2=O)cc1 (configuration not stated)	22.4 µM (inconclusive)
CCOc1ccc2nc(SCc3ccccc3C#N)sc2c1	12.6 µM (inconclusive)
COC(=O)c1sc2ccccc2c1-n1cccc1C(=O)C(=O)Nc1ccc(Cl)cc1	14.1 µM (inconclusive)
O=C(Nc1ccccc1)N1CC[C@@]2(CCCN(C(=O)Oc3ccccc3)C2)C1	25.1 µM (inconclusive)

Short answer on Cytochrome P450 3A4 (Homo sapiens, UniProt P08684) for O=C(c1csnn1)N1CCC[C@@]2(CCN(c3ccccn3)C2)C1 , AC50: 6.31 µM (inconclusive)

Given the compound Cc1c(C)c2c(c(C)c1O)CC[C@@](C)(C(=O)O)O2 and test system Cytochrome P450 3A4 (Homo sapiens, UniProt P08684), the measured AC50 is 12.6 µM (inconclusive)

Summary: COc1ccc(-n2c(=O)c(C)nc3cnc(Oc4cccc(Cl)c4)nc32)cc1 , Cytochrome P450 3A4 (Homo sapiens, UniProt P08684), AC50 = 3.16 µM (inconclusive)

Form: item CC1CCN(C(=O)c2ccc(COc3ccccc3Cl)o2)CC1 ; test system Cytochrome P450 3A4 (Homo sapiens, UniProt P08684); AC50: 31.6 µM (inconclusive)

Kindly note: Cytochrome P450 3A4 (Homo sapiens, UniProt P08684), CN1CCN(c2ncc3nc(-c4cc(F)cc(F)c4)c(=O)n(Cc4cccs4)c3n2)CC1 , AC50 value reported: 25.1 µM (inconclusive)

Item Cc1nc(SCC(=O)NCCc2ccccc2)c2oc3ccccc3c2n1 ; assay system Cytochrome P450 3A4 (Homo sapiens, UniProt P08684); AC50 reported as 39.8 µM (inconclusive)

----------
# collection of IC50 values tested on UniProtKB P04406
# Sequence (P04406 whole entry): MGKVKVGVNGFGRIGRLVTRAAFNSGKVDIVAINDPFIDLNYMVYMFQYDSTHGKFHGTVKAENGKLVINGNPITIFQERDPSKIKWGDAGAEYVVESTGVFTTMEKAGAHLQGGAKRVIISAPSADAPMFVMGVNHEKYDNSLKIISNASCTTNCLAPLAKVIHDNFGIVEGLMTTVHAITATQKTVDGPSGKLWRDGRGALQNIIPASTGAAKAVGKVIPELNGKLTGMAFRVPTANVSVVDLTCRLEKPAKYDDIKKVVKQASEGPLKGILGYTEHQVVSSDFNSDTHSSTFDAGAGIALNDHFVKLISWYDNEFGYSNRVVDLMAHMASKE

Here is how some compounds turned out for IC50.
CCc1ccc(-c2cc(C(=O)O)[nH]n2)cc1	> 100 µM (not active)
CCCCCCCCCCCCCCCCCCC#CCCCCCCCC(=O)O	> 100 µM (not active)
COC(=O)C1Nc2cc(C(F)(F)F)ccc2S(=O)(=O)N1 (stereo unspecified)	> 100 µM (not active)

IC50 in this record for CN1CCN(C2=CC(=O)N(c3ccc(Cl)cc3)C2=O)CC1 : > 100 µM (not active)

Value of IC50 reported for the compound O=C(NCCO)c1cc(-c2ccc(Cl)c(Cl)c2Cl)n[nH]1 is > 10 µM (inconclusive)

So for O=C(CSc1nnc(-c2ccccc2)o1)Nc1ccccc1F , the logged IC50 turned out to be > 100 µM (not active)

----------
Entries below carry reported AC50 on Cytochrome P450 2C9 (Homo sapiens).
Sequence (P11712 whole entry): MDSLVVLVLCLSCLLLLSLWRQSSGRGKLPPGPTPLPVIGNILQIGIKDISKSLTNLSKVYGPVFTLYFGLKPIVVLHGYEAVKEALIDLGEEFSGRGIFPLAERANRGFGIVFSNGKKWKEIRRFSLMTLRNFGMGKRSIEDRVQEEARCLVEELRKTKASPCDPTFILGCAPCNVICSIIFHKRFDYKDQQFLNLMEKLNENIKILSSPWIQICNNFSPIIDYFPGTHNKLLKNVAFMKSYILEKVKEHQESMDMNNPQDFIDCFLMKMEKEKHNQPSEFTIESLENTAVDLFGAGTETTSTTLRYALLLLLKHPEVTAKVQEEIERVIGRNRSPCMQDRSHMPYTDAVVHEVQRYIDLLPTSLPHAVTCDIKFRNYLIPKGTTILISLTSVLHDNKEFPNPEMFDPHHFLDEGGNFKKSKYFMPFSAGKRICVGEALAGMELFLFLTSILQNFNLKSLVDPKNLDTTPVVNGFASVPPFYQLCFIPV

# example entries with known answers
C=CC[C@@H]1C=C[C@H](O/N=C(\C)CCN2CCc3nc(-c4ccccc4)c(-c4ccccc4)cc3C2)[C@H](CO)O1	0.0794 µM (inconclusive)
CCCCNC(=O)CSc1nc2ccccc2c(=O)n1CCNC(C)=O	22.4 µM (inconclusive)
Cc1cc(C=C(C#N)C#N)c(C)n1-c1ccccc1	1.12 µM (inconclusive)

Entry under test: Cc1nc(SCC(=O)NCCc2ccccc2)c2oc3ccccc3c2n1 . Its AC50 was 0.398 µM (inconclusive)

Value of AC50 reported for the compound COc1ccc(-n2c(=O)c(C)nc3cnc(Oc4cccc(Cl)c4)nc32)cc1 is 25.1 µM (inconclusive)

Reported AC50 for COc1ccc(-c2nc3cnc(OC)nc3n(Cc3cccc(OC)c3)c2=O)cc1 was 3.16 µM (inconclusive)

AC50 reading for O=S(=O)(c1ccccc1)N1CCC[C@@]2(CCN(c3ccccc3)C2)C1 : 2.51 µM (inconclusive)
